molecular target: UniProt:P42345; test: Inhibition of mTOR kinase activity, HotSpot assay, phosphorylation of 4EPB1; conditions: read-out: Inhibition of kinase activity (as IC50) mTOR; 10 μM ATP; mean of two replicates; Table 12
Measured attribute: IC50

Enquiry: // IC50 lookup, key: COc1ccc(N(C(=O)OCc2cnc([N+](=O)[O-])n2C)c2cc3c(cn2)n(C)c(=O)n3C2CCOCC2)c(C)c1 [Compound 248]
Return: > 100 µM

----------
molecular target: ATR/ATRIP (Homo sapiens); assay: ATR/ATRIP Human PIKK Kinase Enzymatic Radiometric Assay, KinaseProfiler (Eurofins Discovery); details: Km ATP, Table 15, read-out: Inhibition of PIKK kinase activity ATR
Sequence (Q13535 whole entry): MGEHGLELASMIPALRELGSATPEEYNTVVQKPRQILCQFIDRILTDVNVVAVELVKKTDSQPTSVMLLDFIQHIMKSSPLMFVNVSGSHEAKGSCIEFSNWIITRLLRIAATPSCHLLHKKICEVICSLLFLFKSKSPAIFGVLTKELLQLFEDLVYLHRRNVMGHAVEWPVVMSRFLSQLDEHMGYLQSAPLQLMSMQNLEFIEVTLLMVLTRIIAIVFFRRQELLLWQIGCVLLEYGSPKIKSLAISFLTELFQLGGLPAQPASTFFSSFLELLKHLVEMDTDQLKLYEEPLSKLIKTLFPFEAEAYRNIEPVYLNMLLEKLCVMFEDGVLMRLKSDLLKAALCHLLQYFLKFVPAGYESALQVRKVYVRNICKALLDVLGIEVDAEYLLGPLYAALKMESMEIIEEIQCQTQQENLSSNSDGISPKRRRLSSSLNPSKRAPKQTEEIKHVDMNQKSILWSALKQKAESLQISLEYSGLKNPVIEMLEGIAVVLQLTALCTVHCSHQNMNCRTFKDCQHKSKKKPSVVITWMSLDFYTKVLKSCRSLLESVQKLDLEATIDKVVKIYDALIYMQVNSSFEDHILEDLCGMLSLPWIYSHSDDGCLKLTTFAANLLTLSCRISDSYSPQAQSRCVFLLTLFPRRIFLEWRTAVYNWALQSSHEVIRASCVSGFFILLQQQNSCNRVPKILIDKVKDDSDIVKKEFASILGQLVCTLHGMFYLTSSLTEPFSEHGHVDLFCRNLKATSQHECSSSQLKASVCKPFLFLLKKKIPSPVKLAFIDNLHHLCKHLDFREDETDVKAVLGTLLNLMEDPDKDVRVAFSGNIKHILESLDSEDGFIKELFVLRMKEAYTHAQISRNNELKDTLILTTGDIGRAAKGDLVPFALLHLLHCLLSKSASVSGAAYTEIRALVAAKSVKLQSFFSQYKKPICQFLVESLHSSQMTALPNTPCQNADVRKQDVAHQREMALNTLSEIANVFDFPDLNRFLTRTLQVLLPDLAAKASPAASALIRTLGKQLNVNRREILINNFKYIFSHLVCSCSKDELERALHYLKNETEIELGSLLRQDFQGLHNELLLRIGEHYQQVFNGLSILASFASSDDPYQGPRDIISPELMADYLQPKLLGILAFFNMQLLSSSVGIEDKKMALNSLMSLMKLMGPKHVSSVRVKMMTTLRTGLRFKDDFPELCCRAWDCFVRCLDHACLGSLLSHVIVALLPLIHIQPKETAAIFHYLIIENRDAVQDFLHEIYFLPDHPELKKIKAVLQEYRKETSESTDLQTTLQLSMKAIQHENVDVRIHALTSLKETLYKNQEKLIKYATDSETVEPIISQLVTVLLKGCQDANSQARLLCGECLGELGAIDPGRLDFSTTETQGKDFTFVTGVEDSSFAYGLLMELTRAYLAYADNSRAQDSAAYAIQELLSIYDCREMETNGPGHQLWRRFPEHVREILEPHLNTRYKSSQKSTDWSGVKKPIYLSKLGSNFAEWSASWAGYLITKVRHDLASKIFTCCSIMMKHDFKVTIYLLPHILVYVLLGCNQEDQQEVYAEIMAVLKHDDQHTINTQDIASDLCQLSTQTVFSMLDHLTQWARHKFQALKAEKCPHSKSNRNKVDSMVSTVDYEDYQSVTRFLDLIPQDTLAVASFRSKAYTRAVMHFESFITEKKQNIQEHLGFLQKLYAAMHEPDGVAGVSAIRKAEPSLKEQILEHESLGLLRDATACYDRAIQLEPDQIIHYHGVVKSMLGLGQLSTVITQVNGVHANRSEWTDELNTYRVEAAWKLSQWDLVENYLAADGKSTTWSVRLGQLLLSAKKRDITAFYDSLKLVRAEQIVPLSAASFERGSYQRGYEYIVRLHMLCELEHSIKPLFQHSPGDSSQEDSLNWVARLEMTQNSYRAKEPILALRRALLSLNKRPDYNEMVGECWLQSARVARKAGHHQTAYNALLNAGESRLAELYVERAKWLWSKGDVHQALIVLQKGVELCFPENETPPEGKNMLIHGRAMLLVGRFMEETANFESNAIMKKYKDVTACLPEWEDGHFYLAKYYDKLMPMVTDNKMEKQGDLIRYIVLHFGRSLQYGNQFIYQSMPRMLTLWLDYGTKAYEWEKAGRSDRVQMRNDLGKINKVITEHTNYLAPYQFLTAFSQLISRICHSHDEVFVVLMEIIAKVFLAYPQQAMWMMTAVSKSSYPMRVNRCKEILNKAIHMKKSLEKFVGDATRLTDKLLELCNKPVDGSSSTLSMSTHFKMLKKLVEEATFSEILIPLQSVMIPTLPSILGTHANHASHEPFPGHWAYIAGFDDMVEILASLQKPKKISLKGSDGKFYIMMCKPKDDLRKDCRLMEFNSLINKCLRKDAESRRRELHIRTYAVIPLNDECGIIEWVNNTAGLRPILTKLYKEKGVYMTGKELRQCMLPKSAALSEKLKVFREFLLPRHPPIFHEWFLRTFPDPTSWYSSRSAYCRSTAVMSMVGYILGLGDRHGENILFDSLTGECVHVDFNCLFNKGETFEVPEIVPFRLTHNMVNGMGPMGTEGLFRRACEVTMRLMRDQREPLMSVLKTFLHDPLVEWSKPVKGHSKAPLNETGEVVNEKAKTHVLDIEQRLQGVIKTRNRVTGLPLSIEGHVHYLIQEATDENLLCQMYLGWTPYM
Sequence (Q8WXE1 whole entry partner): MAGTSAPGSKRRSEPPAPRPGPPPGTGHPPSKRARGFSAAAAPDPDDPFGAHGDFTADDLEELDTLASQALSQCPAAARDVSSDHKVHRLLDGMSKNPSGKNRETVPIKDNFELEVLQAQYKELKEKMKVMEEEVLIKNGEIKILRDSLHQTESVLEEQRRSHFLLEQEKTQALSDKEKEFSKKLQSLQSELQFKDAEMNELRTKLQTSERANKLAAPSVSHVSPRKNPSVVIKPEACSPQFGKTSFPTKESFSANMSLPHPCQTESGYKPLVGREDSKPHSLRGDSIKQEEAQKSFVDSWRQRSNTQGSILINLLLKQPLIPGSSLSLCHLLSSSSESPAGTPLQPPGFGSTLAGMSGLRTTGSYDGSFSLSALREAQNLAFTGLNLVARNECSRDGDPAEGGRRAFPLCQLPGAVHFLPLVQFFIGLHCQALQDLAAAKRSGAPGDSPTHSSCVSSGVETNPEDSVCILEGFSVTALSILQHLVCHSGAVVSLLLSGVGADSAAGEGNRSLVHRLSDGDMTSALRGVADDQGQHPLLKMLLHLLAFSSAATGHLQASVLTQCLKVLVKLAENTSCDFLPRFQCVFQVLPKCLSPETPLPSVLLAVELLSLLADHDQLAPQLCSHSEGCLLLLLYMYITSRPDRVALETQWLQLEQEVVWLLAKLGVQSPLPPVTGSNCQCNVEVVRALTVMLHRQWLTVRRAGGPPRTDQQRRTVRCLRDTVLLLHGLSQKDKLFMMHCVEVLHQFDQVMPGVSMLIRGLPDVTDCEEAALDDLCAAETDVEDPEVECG
pIC50: −log10 of the molar value.
Measured attribute: pIC50

Enquiry: // query pIC50 value for entry "Cc1cc(OCc2cnc([N+](=O)[O-])n2C)ccc1Nc1cc2c(cn1)n(C)c(=O)n2C1CCCC1"
Return: < 4.00

Enquiry: Continue with "COc1ccc(Nc2cc3c(cn2)n(C)c(=O)n3C2CCOCC2)c(C)c1"
Return: < 4.00

Enquiry: Next compound: "Cc1cc2ncnn2cc1Nc1cc2c(cn1)n(C)c(=O)n2C1CCOCC1"
Return: < 6.00

Enquiry: Next up: "COc1ccc(N(C(=O)OCc2cnc([N+](=O)[O-])n2C)c2cc3c(cn2)n(C)c(=O)n3C2CCOCC2)c(C)c1"
Return: < 4.00

----------
target: UniProtKB P78527; assay: Inhibition of DNA-PKcs kinase activity, HotSpot assay (Reaction Biology), [γ-33P]-ATP phosphorylation of peptide substrate; format: biochemical; details: HotSpot assay Reaction Biology Corp.; Table 15; read-out: Inhibition of PIKK kinase activity DNA-PK
Measured attribute: IC50 (nM)
// note: answer is a bare numeric in nM

Enquiry: Request: IC50, test system UniProtKB P78527, entry "Cc1cc(OCc2cnc([N+](=O)[O-])n2C)ccc1Nc1cc2c(cn1)n(C)c(=O)n2C1CCCC1"
Return: 766

Enquiry: Now this one: "Cc1cc2ncnn2cc1Nc1cc2c(cn1)n(C)c(=O)n2C1CCOCC1"
Return: 14.3

Enquiry: Would you mind doing "COc1ccc(N(C(=O)OCc2cnc([N+](=O)[O-])n2C)c2cc3c(cn2)n(C)c(=O)n3C2CCOCC2)c(C)c1" as well?
Return: 18.5

----------
biological target: human DNA-PK (Homo sapiens, UniProt P78527); assay: Inhibition of DNA-PKcs kinase activity, HotSpot assay (Reaction Biology), [γ-33P]-ATP phosphorylation of peptide substrate; assay type: biochemical; settings: 10 μM ATP, 10 μg/ml DNA; mean of two replicates; Table 12; read-out: Inhibition of kinase activity (as IC50) DNA-PK (converted)
Rule for this label: 1.0 means IC50 is less than 60 nM; 0.0 means IC50 is at least 60 nM.

Enquiry: Hello, I'm reviewing records and need to know if IC50 of "COc1ccc(-n2c(=O)n(C)c3cnc(Nc4ccc(OCc5ccccc5)cc4C)cc32)cc1" is below 60 nM. Could you check?
Return: 1.0

Enquiry: # repeat for "Cc1cc(Cl)cnc1Nc1cc2c(cn1)n(C)c(=O)n2C1CCOCC1"
Return: 1.0

Enquiry: Item: "Cc1cc(Cl)ccc1Nc1cc2c(cn1)n(C)c(=O)n2-c1ccc(C(C)(C)C#N)cc1"
Return: 1.0

Enquiry: Next compound: "COc1cc(C)c(Nc2cc3c(cn2)n(C)c(=O)n3C2CCOCC2)cc1OC"
Return: 0.0

Enquiry: Input "Cc1cc2nccnc2cc1Nc1cc2c(cn1)n(C)c(=O)n2C1CCOCC1"
Return: 1.0

Enquiry: Subsequent entry: Cc1cc(Cl)ccc1Nc1cc2c(cn1)n(C)c(=O)n2C1CCOC1 (centres unmarked)
Return: 1.0

Enquiry: Try this compound too: "COc1cnc(Nc2cc3c(cn2)n(C)c(=O)n3C2CCOCC2)c(C)c1"
Return: 0.0

Enquiry: // next record "Cc1cc2c(cc1Nc1cc3c(cn1)n(C)c(=O)n3C1CCOCC1)OCO2"
Return: 1.0

Enquiry: Check "Cc1nc2ccc(Nc3cc4c(cn3)n(C)c(=O)n4C3CCOCC3)cc2o1" too.
Return: 0.0

Enquiry: // repeat for "COc1ccc(-n2c(=O)n(C)c3cnc(Nc4ccc(S(C)(=O)=O)cc4C)cc32)cc1" and report
Return: 1.0

Enquiry: Now the compound "Cc1nc2cc(C)c(Nc3cc4c(cn3)n(C)c(=O)n4C3CCOCC3)cc2o1"
Return: 1.0

Enquiry: Now consider "COc1ccc(-n2c(=O)n(C)c3cnc(Nc4ccc(O)cc4C)cc32)cc1" and answer again.
Return: 1.0

Enquiry: Entry "COc1ccc(-c2ccc(Nc3cc4c(cn3)n(C)c(=O)n4C3CCOCC3)cc2)cn1" please
Return: 0.0

Enquiry: What would you report for "Cc1ccc(S(C)(=O)=O)cc1Nc1cc2c(cn1)n(C)c(=O)n2C1CCOCC1" ?
Return: 1.0

Enquiry: And the next one, "Cc1cc(Cl)ccc1Nc1cc2c(cn1)n(C)c(=O)n2CCC1CCOCC1" ?
Return: 1.0

Enquiry: Consider next the compound "COc1ccc(N(C(=O)OCc2cnc([N+](=O)[O-])n2C)c2cc3c(cn2)n(C)c(=O)n3C2CCCC2)c(C)c1" in the same way.
Return: 0.0

Enquiry: Here is the next compound: "Cc1nc2cc(Nc3cc4c(cn3)n(C)c(=O)n4C3CCOCC3)c(C)cc2o1"
Return: 1.0
